# Tested on: MMP-9
# PROCEDURE SUMMARY: Substrate phage display with NGS: relative probability (RP) of P3-P1' tetramer clusters;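 note: ratio of tetramer probability after protease selection to that in naive phage library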
# Assay type: biochemical, human
# CONDITION INFO: MMP9; RP of the P3-P1' tetramer contained in the hexamer substrate (substrate phage display, NGS)
Exam item: assign label 1 to entries whose relative probability (RP) is below 40 and label 0 to entries at or above 40. Note that a value of exactly 40 receives label 0.

Hello, I'm reviewing records and need to know if relative probability (RP) of GPALSY is below 40. Could you check?
label 1

Hello, I'm reviewing records and need to know if relative probability (RP) of PQPSEL is below 40. Could you check?
label 0

Hello, I'm reviewing records and need to know if relative probability (RP) of NPQNIR is below 40. Could you check?
label 0

New cases:
Hello, I'm reviewing records and need to know if relative probability (RP) of PTPKAL is below 40. Could you check?
label 0

Hello, I'm reviewing records and need to know if relative probability (RP) of MSPANI is below 40. Could you check?
label 0

Hello, I'm reviewing records and need to know if relative probability (RP) of EGPAGL is below 40. Could you check?
label 0

----------
# Test system: MMP-9
# PROCEDURE SUMMARY: N-terminomic (TMT) analysis of MMP-treated HEK293 secretome: isotopic enrichment of novel N-termini
# Format: biochemical, human
# CONDITION INFO: MMP9 cleavages in HEK293 cell proteins, determined by LC-MS/MS; log2(ratio) range (>3σ, 2σ-3σ, 1σ-2σ)
Reported isotopic enrichment (log2(ratio)) values follow for various substances
// no unit string in output, number only

Guide cases for isotopic enrichment (log2(ratio)), answers given:
Enter reported isotopic enrichment (log2(ratio)) observed with MMP-9 for GLPRE-LAEAVA
2.272

Enter reported isotopic enrichment (log2(ratio)) observed with MMP-9 for MVPRA-VYLPNC
2.491

Enter reported isotopic enrichment (log2(ratio)) observed with MMP-9 for LPAMP-MQGGAQ
3.876

Enter reported isotopic enrichment (log2(ratio)) observed with MMP-9 for VVPFG-VPASAT
2.014

Enter reported isotopic enrichment (log2(ratio)) observed with MMP-9 for SSPRH-SEAATA
4.654

Enter reported isotopic enrichment (log2(ratio)) observed with MMP-9 for DSTMN-MLGGGG
1.618

Enter reported isotopic enrichment (log2(ratio)) observed with MMP-9 for APPAA-VAAVAG
1.731

Enter reported isotopic enrichment (log2(ratio)) observed with MMP-9 for TDPSK-LDSGKE
2.9782

Enter reported isotopic enrichment (log2(ratio)) observed with MMP-9 for YNPMA-LYGSVP
1.709

New cases:
Enter reported isotopic enrichment (log2(ratio)) observed with MMP-9 for FHPEQ-LITGKE
2.628

----------
Reported isotopic enrichment (log2(ratio)) values follow for various substances
# System: MMP-9
# PROCEDURE SUMMARY: N-terminomic (TMT) analysis of MMP-treated HEK293 secretome: isotopic enrichment of novel N-termini
# Type: biochemical, human
# CONDITION INFO: MMP9 cleavages in HEK293 cell proteins, determined by LC-MS/MS; log2(ratio) range (>3σ, 2σ-3σ, 1σ-2σ)
// no unit string in output, number only

Guide cases for isotopic enrichment (log2(ratio)), answers given:
Record request: isotopic enrichment (log2(ratio)) value, item KSIYY-ITGESK [MS detected cleavage site in Heat shock protein HSP 90-beta (P08238)]
3.962

Record request: isotopic enrichment (log2(ratio)) value, item SLARA-YSSFNP
2.539

Record request: isotopic enrichment (log2(ratio)) value, item FSLFG-LGGEPG
2.104

New cases:
Record request: isotopic enrichment (log2(ratio)) value, item HLVRN-IQLEQP
3.981

----------
# Test system: MMP-2
# PROCEDURE SUMMARY: Substrate phage display with NGS: relative probability (RP) of P3-P1' tetramer clusters;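 note: ratio of tetramer probability after protease selection to that in naive phage library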
# Format: biochemical, human
# CONDITION INFO: RP of the P3-P1' tetramer cluster contained in the hexamer; 200 nM MMP-2, 2 h, 37°C, two rounds of selection
Exam item: assign True to entries whose relative probability (RP) is below 30 and False to entries at or above 30. Note that a value of exactly 30 receives False.

Some entries whose results are on file:
Hello, I'm reviewing records and need to know if relative probability (RP) of KSPSRL is below 30. Could you check?
False

Hello, I'm reviewing records and need to know if relative probability (RP) of ETPRPW is below 30. Could you check?
False

Hello, I'm reviewing records and need to know if relative probability (RP) of PAGVKA is below 30. Could you check?
True

Hello, I'm reviewing records and need to know if relative probability (RP) of KSPLRQ is below 30. Could you check?
True

Hello, I'm reviewing records and need to know if relative probability (RP) of PRPFHH is below 30. Could you check?
False

New cases:
Hello, I'm reviewing records and need to know if relative probability (RP) of SAAQPL is below 30. Could you check?
True

Hello, I'm reviewing records and need to know if relative probability (RP) of PYGIKG is below 30. Could you check?
True

Hello, I'm reviewing records and need to know if relative probability (RP) of GPEGMK is below 30. Could you check?
True

Hello, I'm reviewing records and need to know if relative probability (RP) of NRPNNL is below 30. Could you check?
True

Hello, I'm reviewing records and need to know if relative probability (RP) of PHGLAT is below 30. Could you check?
False

Hello, I'm reviewing records and need to know if relative probability (RP) of GPRGLK is below 30. Could you check?
False

Hello, I'm reviewing records and need to know if relative probability (RP) of QPPLPL is below 30. Could you check?
False

Hello, I'm reviewing records and need to know if relative probability (RP) of PYEWHS is below 30. Could you check?
True

Hello, I'm reviewing records and need to know if relative probability (RP) of IPLASL is below 30. Could you check?
False

Hello, I'm reviewing records and need to know if relative probability (RP) of PAPNSL is below 30. Could you check?
True

----------
# Tested on: MMP-9
# PROCEDURE SUMMARY: N-terminomic (TMT) analysis of MMP-treated HEK293 secretome: isotopic enrichment of novel N-termini
# Assay type: biochemical, human
# CONDITION INFO: MS detected cleavage sequence, HEK293 proteins; common MMP2-9 selectome
REPORTED METRIC: isotopic enrichment (log2(ratio)) (acc.to MMP9)

Record request: isotopic enrichment (log2(ratio)) (acc.to MMP9) value, item PTPVP-VVGSQM
2.707 log2(ratio)

Record request: isotopic enrichment (log2(ratio)) (acc.to MMP9) value, item NFLSW-LYNDSP
1.57 log2(ratio)

Record request: isotopic enrichment (log2(ratio)) (acc.to MMP9) value, item IFLRE-LISNAS
1.628 log2(ratio)

Now take the following substance into account.
Record request: isotopic enrichment (log2(ratio)) (acc.to MMP9) value, item GEVQA-MLGQST
1.4957 log2(ratio)

----------
# Test system: MMP-9
# PROCEDURE SUMMARY: Substrate phage display with NGS: relative probability (RP) of P3-P1' tetramer clusters;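 note: ratio of tetramer probability after protease selection to that in naive phage library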
# Assay type: biochemical, human
# CONDITION INFO: MMP9; RP of the P3-P1' tetramer contained in the hexamer substrate (substrate phage display, NGS)
Reported relative probability (RP) values follow for various substances
// no unit string in output, number only

Record request: relative probability (RP) value, item PRPFHH
43.6397

New cases:
Record request: relative probability (RP) value, item LSPFGQ
36.0266

Record request: relative probability (RP) value, item SRPAEF
11.7405

Record request: relative probability (RP) value, item QQPQAL
48.457

Record request: relative probability (RP) value, item PHPRLL
38.6219

Record request: relative probability (RP) value, item PHNILS
42.0557

Record request: relative probability (RP) value, item PSNMEG
45.3884

Record request: relative probability (RP) value, item LPKPLR
48.2599

Record request: relative probability (RP) value, item PQGLAG
47.8621

----------
# Tested on: MMP-2
# PROCEDURE SUMMARY: N-terminomic (TMT) analysis of MMP-treated HEK293 secretome: isotopic enrichment of novel N-termini
# Type: biochemical, human
# CONDITION INFO: MMP2 cleaved HEK293 proteins, common set of MMP2-9 selectome; LC-MS/MS
Reported isotopic enrichment (log2(ratio)) (acc.to MMP2) values follow for various substances

Record request: isotopic enrichment (log2(ratio)) (acc.to MMP2) value, item NFLSW-LYNDSP
1.971

Record request: isotopic enrichment (log2(ratio)) (acc.to MMP2) value, item MVPRA-VYLPNC
1.989

New cases:
Record request: isotopic enrichment (log2(ratio)) (acc.to MMP2) value, item FHPEQ-LITGKE
2.036

----------
# Test system: MMP-9
# PROCEDURE SUMMARY: Substrate phage display with NGS: relative probability (RP) of P3-P1' tetramer clusters;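 note: ratio of tetramer probability after protease selection to that in naive phage library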
# Assay type: biochemical, human
# CONDITION INFO: MMP9; RP of the P3-P1' tetramer contained in the hexamer substrate (substrate phage display, NGS)
Quick rule for you: relative probability (RP) at 40 or higher means Condition met, lower means Condition not met.

Some entries whose results are on file:
Is relative probability (RP) for SPPAAI at or above 40?
Condition met

Is relative probability (RP) for DGPVSF at or above 40?
Condition not met

Is relative probability (RP) for QPLEIR at or above 40?
Condition met

New cases:
Is relative probability (RP) for RRPRPL at or above 40?
Condition met
